Source: ChEMBL document CHEMBL4364295

Protocol Summary: Volume of distribution at steady state in Gottingen minipig at 1 mg/kg, po or 0.4 mg/kg, iv by LC/MS/MS analysis
Assay type: ADME, organism-based, Sus scrofa
Experimental Setup: pig, in vivo, read-out: Vdss
Value Type: Vd (L/kg)
Record the value in L/kg, omitting the unit from your answer.

Please look up its Vd: CC(C)(C)S(=O)(=O)c1cc2c(Nc3ccc4scnc4c3)ncnc2cc1OCCO
1.8

###

Tested on: Intestinal mucosa
Protocol Summary: Antiinflammatory activity in crohn's disease patient derived inflamed intestinal mucosa assessed as reduction in IL6 production measured after overnight incubation by immunoassay
Assay type: functional, tissue-based
Experimental Setup: Homo sapiens
Value Type: pIC50
Expect pIC50 as a plain number equal to -log10 of the molar concentration.

Please look up its pIC50: CC(C)(C)S(=O)(=O)c1cc2c(Nc3ccc4scnc4c3)ncnc2cc1OCCO
8.00
